TARGET OR SYSTEM: integrin αIIbβ3 (UniProt P08514 32-1039; P05106 27-788)
Sequence (P08514 32-1039, chain 1 of 2): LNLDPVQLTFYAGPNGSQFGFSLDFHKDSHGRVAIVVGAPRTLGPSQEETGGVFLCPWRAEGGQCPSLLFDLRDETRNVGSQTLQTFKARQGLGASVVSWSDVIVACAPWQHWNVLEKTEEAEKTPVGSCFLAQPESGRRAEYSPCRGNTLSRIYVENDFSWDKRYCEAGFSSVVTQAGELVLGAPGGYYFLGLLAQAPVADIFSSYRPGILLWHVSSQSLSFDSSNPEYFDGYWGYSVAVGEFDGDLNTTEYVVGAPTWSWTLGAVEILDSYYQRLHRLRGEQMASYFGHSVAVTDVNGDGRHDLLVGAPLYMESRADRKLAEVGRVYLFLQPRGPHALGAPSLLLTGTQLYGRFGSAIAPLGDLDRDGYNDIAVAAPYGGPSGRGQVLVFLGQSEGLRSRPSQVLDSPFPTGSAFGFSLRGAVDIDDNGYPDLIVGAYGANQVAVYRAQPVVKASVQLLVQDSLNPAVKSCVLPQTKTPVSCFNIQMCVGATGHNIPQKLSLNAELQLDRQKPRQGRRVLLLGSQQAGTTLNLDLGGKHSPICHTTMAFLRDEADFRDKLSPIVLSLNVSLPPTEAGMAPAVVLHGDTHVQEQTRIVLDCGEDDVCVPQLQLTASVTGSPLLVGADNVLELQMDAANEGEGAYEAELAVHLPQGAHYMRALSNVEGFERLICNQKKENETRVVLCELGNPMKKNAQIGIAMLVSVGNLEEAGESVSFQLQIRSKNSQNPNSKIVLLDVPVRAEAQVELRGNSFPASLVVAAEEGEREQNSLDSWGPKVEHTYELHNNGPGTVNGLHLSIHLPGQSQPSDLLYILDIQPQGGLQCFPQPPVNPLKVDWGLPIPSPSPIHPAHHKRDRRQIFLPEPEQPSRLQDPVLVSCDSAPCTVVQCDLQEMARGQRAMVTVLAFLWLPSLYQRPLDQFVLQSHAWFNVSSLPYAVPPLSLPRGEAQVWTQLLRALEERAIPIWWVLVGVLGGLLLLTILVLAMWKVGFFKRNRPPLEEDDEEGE
Sequence (P05106 27-788, chain 2 of 2): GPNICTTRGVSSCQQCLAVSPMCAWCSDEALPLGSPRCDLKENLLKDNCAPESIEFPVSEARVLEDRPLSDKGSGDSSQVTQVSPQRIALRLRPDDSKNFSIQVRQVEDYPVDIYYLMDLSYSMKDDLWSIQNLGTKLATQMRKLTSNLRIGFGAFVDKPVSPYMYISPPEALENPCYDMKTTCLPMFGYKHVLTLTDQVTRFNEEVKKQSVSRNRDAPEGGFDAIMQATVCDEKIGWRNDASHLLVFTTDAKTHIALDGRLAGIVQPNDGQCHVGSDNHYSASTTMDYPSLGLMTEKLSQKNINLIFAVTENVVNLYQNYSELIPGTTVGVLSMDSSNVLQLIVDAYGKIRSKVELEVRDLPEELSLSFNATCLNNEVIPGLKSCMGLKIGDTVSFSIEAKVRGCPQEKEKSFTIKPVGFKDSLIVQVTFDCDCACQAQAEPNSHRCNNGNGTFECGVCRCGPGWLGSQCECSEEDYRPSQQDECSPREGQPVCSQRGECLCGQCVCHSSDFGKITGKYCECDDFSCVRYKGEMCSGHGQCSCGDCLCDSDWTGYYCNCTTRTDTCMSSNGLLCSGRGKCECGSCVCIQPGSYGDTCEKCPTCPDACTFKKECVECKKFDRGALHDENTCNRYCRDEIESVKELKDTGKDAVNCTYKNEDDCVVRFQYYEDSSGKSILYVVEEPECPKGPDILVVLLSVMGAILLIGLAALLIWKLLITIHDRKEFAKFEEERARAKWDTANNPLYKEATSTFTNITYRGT
ASSAY: cell-based or functional assay
MEASUREMENT NAME: IC50, cell adhesion assay

Recorded results for 4 binders are shown here.
1. FNIII 10 variant (SEQ ID NO: 48, VTPRGDMPDSSK) (designed binder, also called FNIII 10 (PRGDMPD) protein; FNIII 10 PRGDMPD variant) HHHHHHVSDVPRDLEVVAATPTSLLISWDAPAVTVRYYRITYGETGGNSPVQEFTVPGSKSTATISGLKPGVDYTITVYAVTPRGDMPDSSKPISINYRT; > 9.07 µM
2. FNIII 10 C-X7-C (SEQ ID NO: 8, VCPRGDWNECSK) (designed binder, Engineered intradomain disulfide bond Cys1491-Cys1499; exact N-terminus uncertain) HHHHHHVSDVPRDLEVVAATPTSLLISWDAPAVTVRYYRITYGETGGNSPVQEFTVPGSKSTATISGLKPGVDYTITVYAVCPRGDWNECSKPISINYRT; > 4.49 µM
3. FNIII 10 C-X7-C (SEQ ID NO: 10, VCARGDNPDCSK) (designed binder) HHHHHHVSDVPRDLEVVAATPTSLLISWDAPAVTVRYYRITYGETGGNSPVQEFTVPGSKSTATISGLKPGVDYTITVYAVCARGDNPDCSKPISINYRT; > 4.55 µM
4. FNIII 10 C-X7-C (SEQ ID NO: 6, VCPRGDMPDCSK) (designed binder) HHHHHHVSDVPRDLEVVAATPTSLLISWDAPAVTVRYYRITYGETGGNSPVQEFTVPGSKSTATISGLKPGVDYTITVYAVCPRGDMPDCSKPISINYRT; > 62.1 µM

# ---- query binder ----
**Q:** Give its IC50, cell adhesion assay value. Item: Control FNIII 10 mutant (SEQ ID NO: 50, VTPRGDWNEGSK) (designed binder, exact N-terminus uncertain; also called FNIII 10 variant) HHHHHHVSDVPRDLEVVAATPTSLLISWDAPAVTVRYYRITYGETGGNSPVQEFTVPGSKSTATISGLKPGVDYTITVYAVTPRGDWNEGSKPISINYRT
**A:** > 9.03 µM

Taken from patent US20150218251A1.
